Structures can show the parent of a compound that is named as a salt.
Measured Attribute: melting point (°C)

Reference set, count: 4
CN1CCC(OC(c2cccc(N3CCC(F)C3)c2)c2nc3ccccc3s2)CC1 (stereo not shown) (as salt: oxalate) [Example 430] | 70
CN1CCC(NC(c2ccc[nH]2)c2nc3ccccc3s2)CC1 (stereo not shown) [Example 58] | 125
CN1CCC(OC(c2nc3ccccc3[nH]2)c2cc(Cl)ccc2O)CC1 (stereo not shown) [Example 569] | 185
CN1CCC(OC(c2cccc(OCCCn3nccn3)c2)c2nc3ccccc3s2)CC1 (stereo not shown) (as salt: oxalate) [Example 349] | 74

a. Cc1ccc(C(OC2CCN(C)CC2)c2nc3ccccc3[nH]2)c(O)c1 (stereo not shown) [Example 574]
b. CN1CCC(OC(c2cccc(SC(C)(C)CCO)c2)c2nc3ccccc3s2)CC1 (stereo not shown) (as salt: oxalate) [Example 242]
Q: Higher melting point between a and b ? Identify your pick by its label.
A: a

* * *

Where a name gives a salt, the structure may show the parent alone.
Measured Attribute: melting point (°C)

Reference set, count: 5
Cc1ccc(C(OC2CCN(C)CC2)c2nc3ccccc3s2)s1 (stereo not shown) (as salt: oxalate) | 174
CN1CCC(NC(c2cccc(C(F)(F)F)c2)c2nc3ccccc3[nH]2)CC1 (stereo not shown) | 90
CN1CCC(OC(c2cccc(C#CCCCCNC(=N)NC(=O)OC(C)(C)C)c2)c2nc3ccccc3s2)CC1 (stereo not shown) | 130
CN1CCC(NC(c2cccc(OC3CCCCO3)c2)c2nc3ccccc3[nH]2)CC1 (stereo not shown) | 97
CN1CCC(OC(c2nc3ccccc3s2)c2ccc(F)cc2F)CC1 (stereo not shown) (as salt: oxalate) | 182

A. CCOC(=O)n1c(C(OC2CCN(C)CC2)c2cc(OC(F)(F)F)ccc2F)nc2ccccc21 (stereo not shown) (as salt: oxalate)
B. COCCOc1cccc(C(OC2CCN(C)CC2)c2nc3ccccc3s2)c1 (stereo not shown) (as salt: oxalate)
C. Cc1ccc2sc(C(OC3CCN(C)CC3)c3ccccc3)nc2c1 (stereo not shown) (as salt: oxalate)
Q: Rank descending by melting point. Write the labels in rank order as requested.
A: C, A, B
(C: 175 °C, A: 118 °C, B: 80 °C)

* * *

Measured Ki or IC50 activity class values are reported for all entries that follow.
# Assay System: human H4 receptor (Homo sapiens)
# Construct: expressed in transfected cells
# Assay: [3H]Histamine binding on membranes of CHO cells stably expressing human H4 receptor

CN1CCC(OC(c2cccc(OCCF)c2)c2nc3ccccc3[nH]2)CC1 (stereo not drawn) | < 30 nM

CN1CCC(OC(c2ccsc2)c2nc3ccccc3s2)CC1 (stereo not drawn) has a reported Ki or IC50 activity class of < 30 nM

CCSc1ccc(O)c(C(OC2CCN(C)CC2)c2nc3ccccc3[nH]2)c1 (stereo not drawn) has a reported Ki or IC50 activity class of < 30 nM

CN1CCC(OC(c2nc3ccccc3[nH]2)c2ccc(F)c(F)c2O)CC1 (stereo not drawn) has a reported Ki or IC50 activity class of < 30 nM

CN1CCC(OC(c2cccc(I)c2)c2nc3ccccc3s2)CC1 (stereo not drawn) [Example 41] has a reported Ki or IC50 activity class of < 30 nM

CN1CCC(NC(c2cccc(SCc3ccccc3)c2)c2nc3ccccc3s2)CC1 (stereo not drawn) has a reported Ki or IC50 activity class of < 30 nM

COc1cc(F)c(O)c(C(OC2CCN(C)CC2)c2nc3ccccc3[nH]2)c1 (stereo not drawn) has a reported Ki or IC50 activity class of < 300 nM

* * *

Measured Ki or IC50 activity class values are reported for all entries that follow.
# Assay System: human H4 receptor (Homo sapiens, UniProt Q9H3N8)
# Construct: expressed in transfected cells
# Assay: [3H]Histamine binding on membranes of CHO cells stably expressing human H4 receptor

C=CCOc1cccc(C(OC2CCN(C)CC2)c2nc3ccccc3s2)c1 (centres unmarked) [Example 22] | < 30 nM
CN1CCC(NC(c2ccccc2)c2nc3ccccc3s2)CC1 (centres unmarked) [Example 9] | < 30 nM
CN1CCC(OC(c2cccc(SCCO)c2)c2nc3ccccc3s2)CC1 (centres unmarked) [Example 158] | < 30 nM
CN1CCC(OC(c2nc3ccccc3[nH]2)c2cc(Cl)cc(F)c2O)CC1 (centres unmarked) [Example 599] | < 300 nM
CN1CCC(OC(c2cccc(SC(C)(C)C)c2)c2nc3ccccc3[nH]2)CC1 (centres unmarked) [Example 215] | < 300 nM

CN1CCC(OC(c2cccc(OCCCN)c2)c2nc3ccccc3[nH]2)CC1 (centres unmarked) [Example 327] has a reported Ki or IC50 activity class of < 300 nM

CN1CCC(OC(c2cccc(SC[C@H]3C[C@H]3CN)c2)c2nc3ccccc3[nH]2)CC1 (some centres unmarked) [Example 494] has a reported Ki or IC50 activity class of < 30 nM

CN1CCC(NC(c2cccc(OCCCCN)c2)c2nc3ccccc3s2)CC1 (centres unmarked) [Example 387] has a reported Ki or IC50 activity class of < 30 nM

CN1CCC(NC(c2ccc[nH]2)c2nc3ccccc3s2)CC1 (centres unmarked) [Example 58] has a reported Ki or IC50 activity class of < 300 nM

CN1CCC(OC(c2nc3ccccc3[nH]2)c2ccc(OC(F)(F)F)cc2O)CC1 (centres unmarked) [Example 621] has a reported Ki or IC50 activity class of < 30 nM

C=CCCCOc1cccc(C(OC2CCN(C)CC2)c2nc3ccccc3s2)c1 (centres unmarked) [Example 168] has a reported Ki or IC50 activity class of < 300 nM

CN1CCC(OC(c2cccc(SCCCCCN)c2)c2nc3ccccc3s2)CC1 (centres unmarked) [Example 305] has a reported Ki or IC50 activity class of < 30 nM

Cc1ccc(COc2cccc(C(NC3CCN(C)CC3)c3nc4ccccc4[nH]3)c2)cc1 (centres unmarked) [Example 130] has a reported Ki or IC50 activity class of < 300 nM

CN1CCC(OC(c2cccc(SCc3ccccc3)c2)c2nc3ccccc3s2)CC1 (centres unmarked) [Example 148] has a reported Ki or IC50 activity class of < 300 nM

CN1CCC(OC(c2cccc(-c3cncnc3)c2)c2nc3ccccc3s2)CC1 (centres unmarked) [Example 216] has a reported Ki or IC50 activity class of < 300 nM

CN1CCC(OC(c2nc3ccccc3[nH]2)c2cccc(SCCN)c2F)CC1 (centres unmarked) [Example 352] has a reported Ki or IC50 activity class of < 300 nM

* * *

# Assay System: human H4 receptor (Homo sapiens)
# Construct: expressed in transfected cells
# Assay: [3H]Histamine binding on membranes of CHO cells stably expressing human H4 receptor
Measured Ki or IC50 activity class values are reported for all entries that follow.

Reference set, count: 6
CN1CCC(NC(c2cccc(SCc3ccccc3)c2)c2nc3ccccc3[nH]2)CC1 (centres unmarked) | < 0.03 µM
CN1CCC(NC(c2cccc(N=[N+]=[N-])c2)c2nc3ccccc3[nH]2)CC1 (centres unmarked) | < 0.3 µM
CN1CCC(OC(c2cccc(OCCCCCNCCCCN)c2)c2nc3ccccc3[nH]2)CC1 (centres unmarked) | < 1 µM
CN1CCC(OC(c2cccc(OCCCCCNCC(=O)OC(C)(C)C)c2)c2nc3ccccc3s2)CC1 (centres unmarked) | < 1 µM
CC(=O)OC1CCN(c2cccc(C(OC3CCN(C)CC3)c3nc4ccccc4s3)c2)CC1 (centres unmarked) | < 0.3 µM
CN1CCC(OC(c2nc3ccccc3[nH]2)c2c(F)cc(Cl)cc2F)CC1 (centres unmarked) | < 0.03 µM

CN1CCC(OC(c2cccc(SCCNC(=N)N)c2)c2nc3ccccc3s2)CC1 (centres unmarked) has a reported Ki or IC50 activity class of < 0.03 µM

CN1CCC(NC(c2cccc(O)c2)c2nc3ccccc3[nH]2)CC1 (centres unmarked) has a reported Ki or IC50 activity class of < 0.3 µM

* * *

Structures can show the parent of a compound that is named as a salt.
Measured Attribute: melting point (°C)

CN1CCC(OC(c2cccc(Br)c2)c2nc3cc(F)ccc3[nH]2)CC1 (single isomer, unassigned) | 89

I. CN1CCC(OC(c2cccc(OCC3CCNCC3)c2)c2nc3ccccc3s2)CC1 (stereo not shown) (as salt: oxalate)
II. CN1CCC(OC(c2nc3ccccc3[nH]2)c2ccccc2Cl)CC1 (stereo not shown)
Q: Higher melting point between I and II ? Identify your pick by its label.
A: II

I. CN1CCC(OC(c2cccc(OC3CC4CNCC4C3)c2)c2nc3ccccc3s2)CC1 (stereo not shown) (as salt: oxalate)
II. CN1CCC(OC(c2cccc(SCCC3CCCCN3)c2)c2nc3ccccc3[nH]2)CC1 (stereo not shown)
Q: Given I and given II , which shows the smaller recorded melting point? Identify your pick by its label.
A: I
(I: 70 °C, II: 164 °C)

I. Cc1ccc(C(OC2CCN(C)CC2)c2nc3ccccc3[nH]2)c(F)c1F (stereo not shown)
II. CN1CCC(OC(c2cccc(C#CCNC(=N)N)c2)c2nc3ccccc3s2)CC1 (stereo not shown) (as salt: hydrochloride)
Q: Higher melting point between I and II ? Identify your pick by its label.
A: II
(II: 125 °C, I: 80 °C)
